- Tested on: MCF7
- experiment_notes: Antiproliferative activity against human MCF7 cells by MTT assay
- Format: functional, cell-based
value_kind: pIC50
Scale for pIC50: -log10 of concentration given in mol/L; no unit attached.

## Input Give me measured pIC50, please, for this compound: C=C1CC[C@H]2C(C)(C)CCC[C@]2(C)[C@H]1CC1=C(O)C(=O)C(CO)=CC1=O
## Output 5.82
